- Test system: U2OS
- assayComment: Multiplex assay against U2OS
- Type: toxicity, cell-based
- testParameters: human, 48 h, 1 µM, compound concentration 1 uM, replicate 1
assayReadout: Population Membrane Permeable-Phenotype (%)
Could you give me the number in %? Just the number is fine.

Query Population Membrane Permeable-Phenotype (%) for O=S(=O)(c1ccccc1)c1cnc2c(N3CCNCC3)cccc2c1 [INTEPIRDINE]
6

Query Population Membrane Permeable-Phenotype (%) for O=C(NCCO)c1cccc(-c2cc(Nc3ccc(OC(F)(F)F)cc3)ncn2)c1
6

Query Population Membrane Permeable-Phenotype (%) for Cc1ccc(/C(=C\CN2CCCC2)c2ccccn2)cc1
3

Query Population Membrane Permeable-Phenotype (%) for CSCC[C@H](NC=O)C(=O)N[C@@H](CC(C)C)C(=O)N[C@@H](Cc1ccccc1)C(=O)O
4

Query Population Membrane Permeable-Phenotype (%) for CCCn1c(=O)c2[nH]c(C3CCCC3)nc2n(CCC)c1=O
3

Query Population Membrane Permeable-Phenotype (%) for N#Cc1c(N)nc(SCc2csc(-c3ccc(Cl)cc3)n2)c(C#N)c1-c1ccc(OCCO)cc1
9

Query Population Membrane Permeable-Phenotype (%) for COc1cc(NC(=O)CCN2CCC(OC(=O)Nc3ccccc3-c3ccccc3)CC2)c(Cl)cc1CNC[C@H](O)c1ccc(O)c2[nH]c(=O)ccc12
3

Query Population Membrane Permeable-Phenotype (%) for CC(C)(C)c1ccc(S(=O)(=O)Nc2ccc(Cl)cc2C(=O)c2cc[n+]([O-])cc2)cc1
5

Query Population Membrane Permeable-Phenotype (%) for COc1ccc2c(c1)C(C(=O)N(Cc1ccc(N(C)C)cc1)c1ccc(C(C)C)cc1)CCC2.Cl (configuration not stated)
10

Query Population Membrane Permeable-Phenotype (%) for CSc1ccccc1N1CCN(CCCCCC(=O)NC2CCCc3ccccc32)CC1.Cl (configuration not stated)
42

Query Population Membrane Permeable-Phenotype (%) for CC1(COc2ccc3c(c2)ncn3-c2ccc3cccc(N4CCC(N)CC4)c3n2)COC1
35

Query Population Membrane Permeable-Phenotype (%) for C[C@@H]1C[C@H]2[C@@H]3CCC4=CC(=O)C=C[C@]4(C)[C@@]3(F)[C@@H](O)C[C@]2(C)[C@@]1(O)C(=O)CO
1

Query Population Membrane Permeable-Phenotype (%) for O=C(O)Cc1ccccc1Nc1c(Cl)cccc1Cl
4

Query Population Membrane Permeable-Phenotype (%) for CCNC1(C(N)=O)CCN(c2ncnc3c2nc(-c2ccccc2Cl)n3-c2ccc(Cl)cc2)CC1
7

Query Population Membrane Permeable-Phenotype (%) for Cc1ccc(C(C)(O)c2nc3ccccc3s2)c(C)c1 (configuration not stated)
5

Query Population Membrane Permeable-Phenotype (%) for CCCC(CCC)C(=O)O
7

Query Population Membrane Permeable-Phenotype (%) for O=C(O)c1cc2ccccc2c(Cc2c(O)c(C(=O)O)cc3ccccc23)c1O
2
